target: furin, P09958; test: furin cleavage Z-score vs untreated control; higher = more cleavage, active = 3.5 or more, inactive = 1 or less, 8 variable residues between constant flanks; conditions: 15 min;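 further: purified furin at 1:10 enzyme:substrate in 50 mM HEPES pH 7.5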
Sequence (P09958 whole entry): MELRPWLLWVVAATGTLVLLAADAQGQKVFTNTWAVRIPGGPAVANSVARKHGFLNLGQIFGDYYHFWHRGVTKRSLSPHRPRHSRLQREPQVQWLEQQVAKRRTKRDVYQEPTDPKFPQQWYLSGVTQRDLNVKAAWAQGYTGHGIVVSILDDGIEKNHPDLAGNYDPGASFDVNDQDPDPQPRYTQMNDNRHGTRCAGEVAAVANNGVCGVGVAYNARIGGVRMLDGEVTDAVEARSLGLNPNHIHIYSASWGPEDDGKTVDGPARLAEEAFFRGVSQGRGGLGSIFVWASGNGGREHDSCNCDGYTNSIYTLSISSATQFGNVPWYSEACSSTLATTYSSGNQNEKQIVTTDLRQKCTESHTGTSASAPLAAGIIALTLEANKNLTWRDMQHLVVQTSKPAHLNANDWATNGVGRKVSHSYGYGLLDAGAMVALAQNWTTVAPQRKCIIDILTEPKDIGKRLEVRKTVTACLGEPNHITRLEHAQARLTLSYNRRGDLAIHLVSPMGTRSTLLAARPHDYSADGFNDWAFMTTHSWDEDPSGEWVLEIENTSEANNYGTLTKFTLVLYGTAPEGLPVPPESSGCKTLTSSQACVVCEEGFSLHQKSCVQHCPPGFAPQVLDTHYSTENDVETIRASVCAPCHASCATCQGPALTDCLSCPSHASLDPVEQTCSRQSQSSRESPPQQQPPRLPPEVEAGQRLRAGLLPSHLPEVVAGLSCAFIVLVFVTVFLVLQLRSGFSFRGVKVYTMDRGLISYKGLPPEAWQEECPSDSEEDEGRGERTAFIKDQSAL
The list shows a part of the results. No count for the full screen is at hand.
reportedMetric: furin cleavage Z-score

get_value(item= CARKKRREEKAGNASASA [FS-1828] , readout=furin cleavage Z-score) returns 2.8

The reported furin cleavage Z-score of the sequence CAEPTTPCSGAGNASASA [HC1979] was -0.645 (inactive)

Recorded result, CARSKRDPIIAGNASASA [FS-3206] , furin cleavage Z-score: 0.347 (inactive)

The sequence identified as CAPPGDPPQPAGNASASA [HC1545] registered its furin cleavage Z-score at -1.28 (inactive)

Form field furin cleavage Z-score, entry CAARLVVLATAGNASASA [HC831] : -1.13 (inactive)

Data provenance is the supplement of paper PMC3545927.
